Origin of the recorded values: the Immune Epitope Database (IEDB)

- Study System: HLA-A*69:01
- Method Description: IEDB peptide-MHC binding, purified MHC/direct/fluorescence; filed as Kd, often an IC50 or EC50 that approximates it; bounds were set here for any values at or beyond the usual limits of such assays
- Experimental Context: source organism: Toxoplasma gondii
pKd: −log10 of the molar value.
Measured Quantity: pKd

Qu. Tell me the measured pKd of `AYMDRKSFK` , please.
Ans. ≤ 4.70

====

- Study System: HLA-B*27:05
- Method Description: IEDB peptide-MHC binding, purified MHC/direct/fluorescence; filed as Kd, often an IC50 or EC50 that approximates it; bounds were set here for any values at or beyond the usual limits of such assays
- Experimental Context: source organism: Mammarenavirus lassaense
Measured Quantity: Kd

Qu. Please give the measured Kd for this sequence: `DIKLIDIAL`
Ans. ≥ 20 µM

====

- Study System: HLA-A*11:01
- Method Description: IEDB peptide-MHC binding, purified MHC/competitive/radioactivity; filed as Kd, often an IC50 or EC50 that approximates it; bounds were set here for any values at or beyond the usual limits of such assays
- Experimental Context: source organism: Mammarenavirus whitewaterense
Kd by entry:
Record the value in nM, omitting the unit from your answer.

RNPYENVLYK :: 1500

Now look at this one.
Qu. Hello, I am looking for reported Kd with HLA-A*11:01 for `LFYVSSIFLH` . Could you help?
Ans. 2240

====

- Study System: HLA-B*40:01
- Method Description: IEDB peptide-MHC binding, purified MHC/competitive/radioactivity; filed as Kd, often an IC50 or EC50 that approximates it; bounds were set here for any values at or beyond the usual limits of such assays
- Experimental Context: source organism: Mammarenavirus tacaribeense
Measured Quantity: Kd (nM)
Hi! Could you send only the number? It should be in nM, unit omitted.

Qu. Give recorded Kd with HLA-B*40:01 for the following sequence: `AEFKSRFFVM`
Ans. 41.6

====

- Study System: HLA-A*68:02
- Method Description: IEDB peptide-MHC binding, purified MHC/direct/fluorescence; filed as Kd, often an IC50 or EC50 that approximates it; bounds were set here for any values at or beyond the usual limits of such assays
- Experimental Context: source organism: Salmonella enterica subsp. enterica serovar Berta
Measured Quantity: Kd

Qu. Item under review: `HQDDGQPRL` . Reported Kd?
Ans. ≥ 20 µM

====

- Study System: HLA-A*68:01
- Method Description: IEDB peptide-MHC binding, purified MHC/competitive/radioactivity; filed as Kd, often an IC50 or EC50 that approximates it; bounds were set here for any values at or beyond the usual limits of such assays
- Experimental Context: source organism: Lassa virus Josiah
Measured Quantity: Kd (nM)
Quick note: give the figure in nM, leave out the unit.

MLQKEYMER :: 33.3

Shifting focus to the sequence that follows.
Qu. Report Kd for `GIPYCNYSK` please.
Ans. 444

====

- Study System: HLA-B*15:01
- Method Description: IEDB peptide-MHC binding, purified MHC/competitive/fluorescence; filed as Kd, often an IC50 or EC50 that approximates it; bounds were set here for any values at or beyond the usual limits of such assays
- Experimental Context: source organism: Brucella suis ATCC 23445
pKd: −log10 of the molar value.
Measured Quantity: pKd

Qu. Notebook: pull reported pKd for HLA-B*15:01, entry `ITAVNRYFK`
Ans. ≤ 4.70

====

- Study System: HLA-A*29:02
- Method Description: IEDB peptide-MHC binding, purified MHC/competitive/radioactivity; filed as Kd, often an IC50 or EC50 that approximates it; bounds were set here for any values at or beyond the usual limits of such assays
- Experimental Context: source organism: Lymphocytic choriomeningitis virus (strain Armstrong)
Measured Quantity: pKd
pKd field: float, defined as -log10 of concentration (mol/L).

Qu. Fill in: pKd of `KLSHSDYEY` is ___
Ans. 5.90

====

Entries and their measured pIC50 follow.
- Study System: HLA-A*02:01
- Method Description: IEDB peptide-MHC binding, purified MHC/competitive/fluorescence; bounds were set here for any values at or beyond the usual limits of such assays
- Experimental Context: source organism: Vaccinia virus WR
Note on pIC50: it is the negative log10 of concentration, concentration in mol/L.

Qu. Requested field: pIC50. Item: `VMLIGIEIL`
Ans. 6.79

Qu. Query `RLGADLDAV` next
Ans. 5.11

====

- Study System: HLA-A*03:01
- Method Description: IEDB peptide-MHC binding, purified MHC/direct/fluorescence; filed as Kd, often an IC50 or EC50 that approximates it; bounds were set here for any values at or beyond the usual limits of such assays
- Experimental Context: source organism: Yersinia pestis Nepal516
Measured Quantity: Kd

Qu. Fill in: Kd of `ETIFTVLAL` is ___
Ans. ≥ 20 µM

====

- Study System: HLA-A*02:19
- Method Description: IEDB peptide-MHC binding, purified MHC/competitive/fluorescence; filed as Kd, often an IC50 or EC50 that approximates it; bounds were set here for any values at or beyond the usual limits of such assays
- Experimental Context: source organism: Vibrio cholerae 2740-80
Measured Quantity: pKd
For clarity, pKd is expressed as the negative log10 of concentration in mol/L.

Qu. For `YEPEMQAQV` , what is its reported pKd?
Ans. 6.07

====

- Study System: HLA-A*26:01
- Method Description: IEDB peptide-MHC binding, purified MHC/direct/fluorescence; filed as Kd, often an IC50 or EC50 that approximates it; bounds were set here for any values at or beyond the usual limits of such assays
- Experimental Context: source organism: Pseudomonas aeruginosa UCBPP-PA14
Measured Quantity: Kd

Qu. Give HLA-A*26:01 Kd for `AYGSRFHEW`
Ans. ≥ 20 µM

====

- Study System: HLA-B*27:03
- Method Description: IEDB peptide-MHC binding, purified MHC/competitive/fluorescence; filed as Kd, often an IC50 or EC50 that approximates it; bounds were set here for any values at or beyond the usual limits of such assays
- Experimental Context: source organism: Burkholderia vietnamiensis G4
Measured Quantity: Kd

Qu. Quick check: Kd of `GVNDTEAHA` ?
Ans. ≥ 20 µM

====

- Study System: HLA-B*15:01
- Method Description: IEDB peptide-MHC binding, purified MHC/competitive/fluorescence; filed as Kd, often an IC50 or EC50 that approximates it; bounds were set here for any values at or beyond the usual limits of such assays
- Experimental Context: source organism: Yersinia pestis KIM10+
Measured Quantity: Kd (µM)
Give just the numeric value; µM need not be written.

Qu. Entry under review: `SRWAISHWL` . Reported Kd?
Ans. 1.84

====

- Study System: HLA-A*30:01
- Method Description: IEDB peptide-MHC binding, purified MHC/competitive/fluorescence; filed as Kd, often an IC50 or EC50 that approximates it; bounds were set here for any values at or beyond the usual limits of such assays
- Experimental Context: source organism: Vaccinia virus WR
pKd: −log10 of the molar value.
Measured Quantity: pKd

Qu. If you can, please state the reported pKd value of `FVHTLLKTY` .
Ans. ≤ 4.70

====

- Study System: HLA-C*06:02
- Method Description: IEDB peptide-MHC binding, purified MHC/direct/fluorescence; filed as Kd, often an IC50 or EC50 that approximates it; bounds were set here for any values at or beyond the usual limits of such assays
- Experimental Context: source organism: human gammaherpesvirus 4
Measured Quantity: pKd
The meaning of pKd here: minus log10 of the concentration in molar units.

Qu. Look at this sequence and give its reported pKd. `YRTATLRTL`
Ans. 8.05

====

- Study System: HLA-B*54:01
- Method Description: IEDB peptide-MHC binding, purified MHC/competitive/radioactivity; filed as Kd, often an IC50 or EC50 that approximates it; bounds were set here for any values at or beyond the usual limits of such assays
- Experimental Context: source organism: Triticum aestivum
Measured Quantity: Kd

Qu. Return reported Kd; argument: `QPFRPQQPY`
Ans. ≥ 78.1 µM

====

- Study System: HLA-B*18:01
- Method Description: IEDB peptide-MHC binding, purified MHC/direct/fluorescence; filed as Kd, often an IC50 or EC50 that approximates it; bounds were set here for any values at or beyond the usual limits of such assays
- Experimental Context: source organism: Burkholderia mallei ATCC 23344
Measured Quantity: Kd

Qu. Looking for the measured Kd of `NVMDPMHGA` , can you help?
Ans. ≥ 20 µM

====

- Study System: HLA-B*46:01
- Method Description: IEDB peptide-MHC binding, purified MHC/direct/fluorescence; filed as Kd, often an IC50 or EC50 that approximates it; bounds were set here for any values at or beyond the usual limits of such assays
- Experimental Context: source organism: Escherichia coli O157:H7
Measured Quantity: pKd
Keep in mind that pKd stands for -log10 of concentration in molar terms.

Qu. Reported pKd for `VMAASGAPF` : what is it?
Ans. 5.87

====

- Study System: HLA-A*26:02
- Method Description: IEDB peptide-MHC binding, purified MHC/direct/fluorescence; filed as Kd, often an IC50 or EC50 that approximates it; bounds were set here for any values at or beyond the usual limits of such assays
- Experimental Context: source organism: Vibrio cholerae V52
Measured Quantity: Kd

Qu. What does the record list as Kd for `AADFPGIAR` ?
Ans. ≥ 20 µM
